Collected set of pIC50 measured with von Hippel-Lindau disease tumor suppressor (Homo sapiens) across studies.
Sequence (P40337 whole entry): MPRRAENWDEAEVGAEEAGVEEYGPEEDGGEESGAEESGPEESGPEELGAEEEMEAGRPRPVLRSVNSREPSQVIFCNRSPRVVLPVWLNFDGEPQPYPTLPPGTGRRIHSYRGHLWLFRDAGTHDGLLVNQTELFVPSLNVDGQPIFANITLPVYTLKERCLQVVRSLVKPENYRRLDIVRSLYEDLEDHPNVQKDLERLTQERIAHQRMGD
Convention used: pIC50 is expressed as -log10 of the molar concentration.

API: value(readout=pIC50, system=von Hippel-Lindau disease tumor suppressor (Homo sapiens)) for record Cc1cc(CC(=O)N2C[C@H](O)C[C@H]2C(=O)NCc2ccccc2Cl)on1
3.93

Next record, please: COc1cc(N2CCC(OCC(=O)N[C@H](C(=O)N3C[C@H](O)C[C@H]3C(=O)NCc3ccc(-c4scnc4C)cc3)C(C)(C)C)CC2)ccc1NC(=O)c1cccc(-c2ccn[nH]2)n1
5.85

Now, please, on to the next compound.
API: value(readout=pIC50, system=von Hippel-Lindau disease tumor suppressor (Homo sapiens)) for record COC(=O)c1ccc(CNC(=O)[C@@H]2C[C@@H](O)CN2C(=O)CC(C)(C)C)cc1
4.27
